# System: rabbit pulmonary artery
# Test: Antagonism of rabbit pulmonary artery contractions induced by [Lys5 MeLeu9 Nle10]NKA(4-10)
# Set-up: species or system rabbit (male, New Zealand albino)
# Particulars: product incubated for 2 hours; [Lys5 MeLeu9 Nle10]NKA(4-10) as agonist; Krebs solution 37° C.
pIC50: −log10 of the molar value.

{"columns": ["Compound", "pIC50"],
 "data": [
  ["COc1ccccc1[C@@]1(O)[C@H](O)CC(c2ccccc2)(c2ccccc2)[C@@H]2CN(C(=O)Cc3c[nH]c4ccccc34)C[C@@H]21 [Example 1]", 6.67]
]}

meta.source: patent US5631279A
